- Tested on: HCC 2998
- test: NCI tumour cell line growth inhibition, 48 h
Calls of active or inactive are those of the source. Rule as the data show it: active = GI50 up to about 1.1 µM and inactive = higher.
Outcome codes: y (active), n (inactive)

{"columns": ["compound", "assigned_category"],
 "data": [
  ["C=C1C(=O)C[C@H]2C(=C)C(=O)O[C@@H]2C2C1CC[C@@]2(C)O (stereo partly drawn)", "n"],
  ["COC(=O)CCCC(=O)NC1=C(Nc2ccccc2)C(=O)c2ccccc2C1=O", "n"],
  ["[O-][S+]1c2ccccc2N=C(c2cccc3ccccc23)CC1c1cccc2ccccc12 (stereo not drawn)", "n"],
  ["[O-][S+]1Cc2ccccc2CS1 (stereo not drawn)", "n"],
  ["Oc1[nH]c(Nc2cccc(Br)c2)nc2ncnc1-2", "n"],
  ["CN(C)CCNCCCNc1c2ccccc2nc2cccc([N+](=O)[O-])c12", "y"],
  ["CN(C)C(Cc1c[nH]cn1)C(=O)N1CCCC1C(N)=O (stereo not drawn)", "n"],
  ["CCN(CC)CC(O)C1CCC(c2ccccc2)CC1 (stereo not drawn)", "y"],
  ["O=C1C=C(c2ccccc2)O/C1=C/C(=O)c1ccc(Cl)cc1", "n"],
  ["C=CCC(OCCOCC)c1cc(OCCOCC)ccc1OC (stereo not drawn)", "n"],
  ["COc1ccc(C(=C2C=CC=C2)c2ccc(OC)cc2)cc1", "n"],
  ["CN(C)c1nc(N(C)C)sc(=O)n1", "n"],
  ["CCN(CC)c1ccc2cc(C(N)=O)c(=N)oc2c1", "n"],
  ["COc1cc(Cc2cnc(N)nc2N)cc(OC)c1OCCCNc1ccc([N+](=O)[O-])cc1", "n"],
  ["CN(N=O)C(=O)N[C@H]1C(O)O[C@H](CO)[C@@H](O)[C@@H]1O (stereo partly drawn)", "n"],
  ["N#CC(C#N)/N=C/c1ccncc1", "n"],
  ["CC(=O)N[C@@H](Cc1ccc(O)cn1)C(=O)NCc1cccc(Cl)c1", "n"],
  ["COc1cccc(N2C(=O)C3CC(CC(C)(C)C)c4c([nH]c5ccccc45)C3C2=O)c1 (stereo not drawn)", "n"]
]}
